Quick reference: inhibition of the listed items.
- test-summary: growth inhibition of WT strain, primary screen, mitochondrial fusion inhibitor project, WT and mutant strains, chemical genetic (AID 1362)
- condition-details: mitochondrial fusion phenotypic screen, WT strain, growth inhibition; at 10 µM; stronger effect = higher value
The campaign covered roughly 190,000 compounds. About 4,000 (2.1%) were called active. This is one part of a sample in which actives are shown more often than they occur.
Please give a number only; it is taken to be in %.

Cc1ccc(OCC(=O)Nc2ccc(S(=O)(=O)Nc3ccccn3)cc2)cc1    -2.17
Cc1nc2ccccc2c2oc(C(=O)NCC3CCCO3)cc12 (centres undefined)    1.66
O=C(NC1CC1)C1CCCN(C(=O)NC2CCCCC2)C1 (centres undefined)    -6.93
COc1ccc(Cl)cc1NC(=O)CN(C)Cc1ccc(OC)c(OC)c1    13.3

Please give the documented inhibition of Cc1ccc(N(CC(=O)Nc2cccc(N(C)S(C)(=O)=O)c2)S(C)(=O)=O)cc1
0.56

Fill in inhibition for record COC(=O)Cc1ccc(N(Cc2ccccc2F)S(=O)(=O)c2ccc(Br)cc2)cc1
69.7

State its inhibition: COc1ccc(-c2ccc(CCC(=O)O)n2-c2ccc(O)cc2)cc1
-12.3

* * *

- test-summary: growth inhibition of WT strain, primary screen, mitochondrial fusion inhibitor project, WT and mutant strains, chemical genetic (AID 1362)
- condition-details: mitochondrial fusion phenotypic screen, WT strain, growth inhibition; at 10 µM
In all, about 190,000 compounds went through this assay and about 4,000 (2.1%) were called active. No stated cut-off is given here; in the data, active means inhibition above about 58%; inactive means the rest, inconclusive results apart; tested in S. cerevisiae. The entries come from a sample that favours actives as a whole.
Your reply should match one of these outcome classes. TRUE for active, FALSE for inactive

Worked set:
OCC1(CCc2ccccc2)CCN(Cc2ccc3nsnc3c2)CC1    FALSE
CC(C)CN1CCNC(=O)C1CC(=O)N(C)CC1CCOCC1 (stereo not given)    FALSE
O=C(OCC(=O)c1cccs1)C1=COCCO1    FALSE

Look up the recorded call for C/C(=N\NC(=S)NC(C)C)c1ccc(C(C)(C)C)cc1 in this test.
TRUE

Given Cc1ccc(Nc2ccccc2N)cc1 , state the outcome it received in this test.
FALSE

Returns: the outcome recorded for COc1cc(C(=O)NCc2ccc(-n3cccc3)cc2)cc(OC)c1OC in this assay.
FALSE

I'd appreciate the recorded outcome for Cc1cc(Nc2ccccc2)n(C(=O)c2ccc(N)cc2)n1 from this test.
FALSE

Hey, what did the test say about Cc1ccc(/C=N/NC(=O)COc2ccccc2-c2ccccc2)cc1 ?
TRUE

Hi, do you know how COc1cccc(CC2(CO)CCN(Cc3cnc(-c4cccc(C)c4)nc3)CC2)c1 came out in this test?
FALSE

Outcome logged for COc1ccc(NC(=O)COC(=O)CNC(=O)C2CCCCC2)cc1 in this assay:
FALSE

* * *

- test-summary: growth inhibition of WT strain, primary screen, mitochondrial fusion inhibitor project, WT and mutant strains, chemical genetic (AID 1362)
- condition-details: mitochondrial fusion phenotypic screen, mutant strain inhibition; at 10 µM
In all, about 190,000 compounds went through this assay and about 4,000 (2.1%) were called active. The list comes from a sample in which actives are over-represented; it also holds close analogues and randomly drawn compounds.
property-label: inhibition (%)
Quick reminder: number only, in %, skip the unit.

# example entries with known answers
CC1Cc2ccccc2N1C(=O)CSc1nnc(C2CC2)n1C (stereo unspecified)    2.15
CC1(c2cccc([N+](=O)[O-])c2)CC(C)(C)N(C(=O)c2ccccc2)c2ccccc21 (stereo unspecified)    33.1
NS(=O)(=O)c1ccc(NC(=S)NC(=O)c2cccnc2)cc1    -10.8
Cc1ccc2[nH]c(=O)c(CN(CC3COCCO3)C(=O)Nc3ccccc3C)cc2c1 (stereo unspecified)    8.92
COc1cc(/C=N/Nc2ccc(C)cc2)cc(Br)c1O    37.7

Determine from records and report inhibition for Cc1cc2ccccc2n1CCC(=O)O
5.92

// fetch inhibition given entry CN(c1cccc(NC(=O)Nc2ccc(Cl)cc2)c1)S(C)(=O)=O
-6.73

* * *

Examples of compounds with documented inhibition follow.
- test-summary: growth inhibition of WT strain, primary screen, mitochondrial fusion inhibitor project, WT and mutant strains, chemical genetic (AID 1362)
- condition-details: mitochondrial fusion phenotypic screen, mutant strain inhibition; at 10 µM
Among all 190,000 compounds or so, about 4,000 (2.1%) were called active. The entries come from a sample that favours actives as a whole.
Please state the figure in %; there is no need to write the unit.

Use these answered entries as a reference point.
CCOC(=O)c1sc(=NC(=O)/C=C/c2cccs2)n(C)c1C    -7.32
CCN1CCN(CCNC(=O)c2ccc(/C=C3/Sc4ccccc4N(Cc4cccc(C)c4)C3=O)cc2)CC1    59.2
O=[N+]([O-])c1ccccc1NCc1ccc(Cl)cc1    13.9
O=C(CSc1nnc(-c2cccs2)n1Cc1ccccc1)N1CCc2ccccc2C1    40.2
O=C(/C=C/c1ccc(F)cc1)NCCNC(=O)/C=C/c1ccc(F)cc1    -17

Quick one: give measured inhibition for CC(=O)c1ccc(NC(=O)C(C)NCc2ccc(Cl)cc2)cc1 (stereo not given)
-21.6

Please give the documented inhibition of CC(=O)Nc1ccc(CN2CCN(Cc3ccc(F)c(F)c3)C(CCO)C2)cc1 (stereo not given)
5.61

# return recorded inhibition for entry COc1ccc(F)cc1C(=O)C1CCCN(C(=O)CCc2ccccn2)C1 (stereo not given)
-2.96

Read the entry Cc1ccc(C2CCN(C(=S)Nc3cccc(Cl)c3)C2)cc1 (stereo not given) and write its reported inhibition.
55

Entry Cc1nn(Cc2ccccc2)c(C)c1C(=O)NCCN1C(=O)S/C(=C\c2ccc(F)cc2)C1=O needs its inhibition filled in; supply it.
0.61

* * *

- test-summary: growth inhibition of WT strain, primary screen, mitochondrial fusion inhibitor project, WT and mutant strains, chemical genetic (AID 1362)
- condition-details: mitochondrial fusion phenotypic screen, WT strain, growth inhibition; at 10 µM; stronger effect = higher value
In all, about 190,000 compounds went through this assay and about 4,000 (2.1%) were called active. The full list was thinned out, with actives kept by preference.
Label True when inhibition >= 10%; otherwise False.

# count of solved cases: 2
COc1ccc(CCc2nnc(CCC(=O)NCc3cnn(-c4ccccc4C)c3)o2)cc1    True
Cc1noc(C)c1CSCC(=O)Nc1nc2ccc(Oc3ccccc3)cc2s1    True

Is inhibition at least 10%? Consider Cc1cccc(OCC(O)CN2CCN(CCN3C(=O)c4cccc5cccc(c45)C3=O)CC2)c1C (stereo not given)
True

Is it the case that CC(=O)NC(Cc1ccc(F)c(F)c1)C(=O)NC1CCN(c2nnnn2-c2ccccc2)CC1 (stereo not given) has inhibition reaching or exceeding 10%?
False

* * *

- test-summary: growth inhibition of WT strain, primary screen, mitochondrial fusion inhibitor project, WT and mutant strains, chemical genetic (AID 1362)
- condition-details: mitochondrial fusion phenotypic screen, WT strain, growth inhibition; at 10 µM; stronger effect = higher value
The campaign covered roughly 190,000 compounds. About 4,000 (2.1%) were called active. This is one part of a sample in which actives are shown more often than they occur.
Use 40% as the dividing line for inhibition, with the line itself on the fulfilled side and lower values as not fulfilled.

Oc1ccc(CNc2ccccc2O)cc1    fulfilled
O=C(NCc1ccc(Cl)cc1)NCc1ccc(Cl)cc1    not fulfilled
COc1ccc(Cl)cc1N(CC(=O)N1CCCCC1)S(C)(=O)=O    not fulfilled

Kindly determine if inhibition recorded for c1ccc(-c2cc(N3CCCCC3)c3ccccc3n2)cc1 is above or exactly 40%.
not fulfilled

Determine whether measured inhibition meets or exceeds 40% for O=C(/C=C/c1ccccc1)N/C(=C/c1ccccc1)C(=O)Nc1ccccc1O
not fulfilled

hey, is inhibition for this one >= 40%? COc1cccc(N(CC(=O)Nc2cccc(N(C)S(C)(=O)=O)c2)S(C)(=O)=O)c1
not fulfilled

Identify whether the reported inhibition of the following compound is 40% or greater: COc1ccc(CS(=O)/C(Cl)=C(/Cl)C(=O)Nc2ccc(OC)nc2)cc1 (configuration not stated)
fulfilled

Could you tell me if the measured inhibition of NC(=O)c1sc2nc3c(c(-c4ccccc4)c2c1N)CCC3 reaches 40% or more?
not fulfilled

Please check the record CCNC(=S)NNC(=O)c1ccc2ncccc2c1 and state if its inhibition is at or above 40%.
not fulfilled

* * *

- test-summary: growth inhibition of WT strain, primary screen, mitochondrial fusion inhibitor project, WT and mutant strains, chemical genetic (AID 1362)
- condition-details: mitochondrial fusion phenotypic screen, mutant strain inhibition; at 10 µM
In all, about 190,000 compounds went through this assay and about 4,000 (2.1%) were called active. The full list was thinned out, with actives kept by preference.
property-label: inhibition (%)
The response must be a number in % with no trailing unit.

COc1cccc(/C=N/NC(=O)c2cccc([N+](=O)[O-])c2)c1OS(=O)(=O)c1ccc(C)cc1    -3.16
CC(C)(C)NC(=O)c1ccc(Cn2cc(C(F)(F)F)ccc2=O)cc1    11.4
O=C(CCCN1C(=O)/C(=C/c2ccco2)SC1=S)Nc1ccccc1    -17.3
Cc1ccc2c(c1)C1CN(C)CCC1N2S(=O)(=O)c1ccc(Oc2ccc([N+](=O)[O-])cc2)cc1 (centres undefined)    62.2
Cc1ccc(-c2csc(NC(=O)c3cccs3)n2)cc1    16.9

Okay, next one:
Query inhibition for O=S(=O)(c1ccc(-c2ccccc2)cc1)N1CCCC1
-14.9
